- protocol_text: Metabolic stability in mouse lung assessed as parent compound remaining measured after 1 hrs by UPLC-MS analysis
- Assay type: ADME, tissue-based
- condition: mouse lung, read-out: Stability
What remaining at 1 h was measured for each of the following?
Your answer should be a plain number; it is taken to be in %.

Q: Returns the measured remaining at 1 h for the input compound. Input: "CO[C@@H](CNC(=O)[C@H](NC(=O)[C@H](O)[C@H](C)O)[C@H](O)c1cncn1C)[C@H](O)[C@H](O)C(=O)N(C)[C@@H](Cc1ccc(F)cc1)C(=O)NCC(=O)N[C@H](C(=O)N[C@@H](CO)C(=O)N[C@H](C(=O)N[C@H](C(=O)N[C@@H](CO)C(=O)NCc1ccc(O)c(O)c1)C(C)(C)C)C(C)(C)O)C(C)(C)O"
A: 0

Q: Lookup "CO[C@@H](CNC(=O)[C@H](NC(=O)[C@H](O)[C@H](C)O)[C@H](O)c1cncn1C)[C@H](O)[C@H](O)C(=O)N(C)[C@@H](Cc1ccccc1)C(=O)NCC(=O)N[C@H](C(=O)N[C@@H](CO)C(=O)N[C@H](C(=O)N[C@H](C(=O)N[C@@H](CO)C(=O)O)C(C)(C)C)C(C)(C)O)C(C)(C)O"
A: 105

###

- protocol_text: Aqueous solubility of compound at pH 5.5
- Type: physicochemical
- condition: buffer
value_type: solubility (µg/mL)
Your answer should be a plain number; it is taken to be in µg/mL.

Q: Returns the measured solubility for the input compound. Input: "CO[C@@H](CNC(=O)[C@H](NC(=O)[C@H](O)[C@H](C)O)[C@H](O)c1cncn1C)[C@H](O)[C@H](O)C(=O)N(C)[C@@H](Cc1ccccc1)C(=O)NCC(=O)N[C@H](C(=O)N[C@@H](CO)C(=O)N[C@H](C(=O)N[C@H](C(=O)N[C@@H](CC(=O)O)C(=O)N1CCC[C@H]1C(=O)NCc1cc(=O)c(O)cn1O)C(C)(C)C)C(C)(C)O)C(C)(C)O"
A: 9100

###

What remaining at 4 h was measured for each of the following?
- protocol_text: Metabolic stability in mouse kidney assessed as parent compound remaining measured after 4 hrs by UPLC-MS analysis
- Type: ADME, tissue-based
- condition: read-out: Stability
Your answer should be a plain number; it is taken to be in %.

Q: Returns the measured remaining at 4 h for the input compound. Input: "CC[C@H](C)[C@H](NC(=O)[C@@H](NC(=O)[C@H](CO)NC(=O)[C@@H](NC(=O)CNC(=O)[C@H](Cc1ccccc1)N(C)C(=O)[C@@H](O)[C@@H](O)[C@H](CNC(=O)[C@H](NC(=O)[C@H](O)[C@H](C)O)[C@H](O)c1cncn1C)OC)C(C)(C)O)C(C)(C)O)C(=O)N[C@@H](CO)C(=O)O"
A: 11

Q: Lookup "CO[C@@H](CNC(=O)[C@H](NC(=O)[C@H](O)[C@H](C)O)[C@H](O)c1cncn1C)[C@H](O)[C@H](O)C(=O)N(C)[C@@H](Cc1ccccc1)C(=O)NCC(=O)N[C@H](C(=O)N[C@@H](CO)C(=O)N[C@H](C(=O)N[C@@H](CC(C)C)C(=O)N[C@@H](CO)C(=O)N[C@@H](CCC(=O)NCc1cc(=O)c(O)cn1O)C(=O)O)C(C)(C)O)C(C)(C)O"
A: 0

Q: Lookup "CO[C@@H](CNC(=O)[C@H](NC(=O)[C@H](O)[C@H](C)O)[C@H](O)c1cncn1C)[C@H](O)[C@H](O)C(=O)N(C)[C@@H](Cc1ccc(F)cc1)C(=O)NCC(=O)N[C@H](C(=O)N[C@@H](CO)C(=O)N[C@H](C(=O)N[C@H](C(=O)N[C@@H](CO)C(=O)O)C(C)(C)C)C(C)(C)O)C(C)(C)O"
A: 109

Q: Lookup "CO[C@@H](CNC(=O)[C@H](NC(=O)[C@H](O)[C@H](C)O)[C@H](O)c1cncn1C)[C@H](O)[C@H](O)C(=O)N(C)[C@@H](Cc1ccccc1)C(=O)NCC(=O)N[C@H](C(=O)N[C@@H](CO)C(=O)N[C@H](C(=O)N[C@H](C(=O)N[C@@H](CC(=O)O)C(=O)N1CCC[C@H]1C(=O)NCc1cc(=O)c(O)cn1O)C(C)(C)C)C(C)(C)O)C(C)(C)O"
A: 91

Q: Lookup "CO[C@@H](CNC(=O)[C@H](NC(=O)[C@H](O)[C@H](C)O)[C@H](O)c1cncn1C)[C@H](O)[C@H](O)C(=O)N(C)[C@@H](Cc1ccc(F)cc1)C(=O)NCC(=O)N[C@H](C(=O)N[C@@H](CO)C(=O)N[C@H](C(=O)N[C@H](C(=O)N[C@@H](CO)C(=O)NCc1ccc(O)c(O)c1)C(C)(C)C)C(C)(C)O)C(C)(C)O"
A: 0

Q: Lookup "CC[C@H](C)[C@H](NC(=O)[C@@H](NC(=O)[C@H](CO)NC(=O)[C@@H](NC(=O)CNC(=O)[C@H](Cc1ccccc1)N(C)C(=O)[C@@H](O)[C@@H](O)[C@H](CNC(=O)[C@H](NC(=O)[C@H](O)[C@H](C)O)[C@H](O)c1cncn1C)OC)C(C)(C)O)C(C)(C)O)C(=O)N[C@@H](CO)C(=O)N[C@@H](CCC(=O)NCc1cc(=O)c(O)cn1O)C(=O)O"
A: 42

Q: Lookup "CO[C@@H](CNC(=O)[C@H](NC(=O)[C@H](O)[C@H](C)O)[C@H](O)c1cncn1C)[C@H](O)[C@H](O)C(=O)N(C)[C@@H](Cc1ccccc1)C(=O)N[C@@H](C)C(=O)N[C@H](C(=O)N[C@@H](CO)C(=O)N[C@H](C(=O)N[C@H](C(=O)N[C@@H](CO)C(=O)NCc1cc(=O)c(O)cn1O)C(C)(C)C)C(C)(C)O)C(C)(C)O"
A: 75

Q: Lookup "CO[C@@H](CNC(=O)[C@H](NC(=O)[C@H](O)[C@H](C)O)[C@H](O)c1cncn1C)[C@H](O)[C@H](O)C(=O)N(C)[C@@H](Cc1ccccc1)C(=O)NCC(=O)N[C@H](C(=O)N[C@@H](CO)C(=O)N[C@H](C(=O)N[C@H](C(=O)N[C@@H](CO)C(=O)N[C@H](CCC(=O)NCc1cc(=O)c(O)cn1O)C(=O)O)C(C)(C)C)C(C)(C)O)C(C)(C)O"
A: 67

Q: Lookup "CO[C@@H](CNC(=O)[C@H](NC(=O)[C@H](O)[C@H](C)O)[C@H](O)c1cncn1C)[C@H](O)[C@H](O)C(=O)N(C)[C@@H](Cc1ccccc1)C(=O)NCC(=O)N[C@H](C(=O)N[C@@H](CO)C(=O)N[C@H](C(=O)N[C@H](C(=O)N[C@@H](CO)C(=O)NCc1cc(=O)c(O)cn1O)C(C)(C)C)C(C)(C)O)C(C)(C)O"
A: 84

Q: Lookup "CO[C@@H](CNC(=O)[C@H](NC(=O)[C@H](O)[C@H](C)O)[C@H](O)c1cncn1C)[C@H](O)[C@H](O)C(=O)N(C)[C@@H](Cc1ccc(F)cc1)C(=O)NCC(=O)N[C@H](C(=O)N[C@@H](CO)C(=O)N[C@H](C(=O)N[C@H](C(=O)N[C@@H](CO)C(=O)N[C@@H](CN)C(=O)NCc1cc(=O)c(O)cn1O)C(C)(C)C)C(C)(C)O)C(C)(C)O"
A: 95

Q: Lookup "CO[C@@H](CNC(=O)[C@H](NC(=O)[C@H](O)[C@H](C)O)[C@H](O)c1cncn1C)[C@H](O)[C@H](O)C(=O)N(C)[C@@H](Cc1ccccc1)C(=O)NCC(=O)N[C@H](C(=O)N[C@@H](CO)C(=O)N[C@H](C(=O)N[C@H](C(=O)N[C@@H](CCC(=O)NCc1cc(=O)c(O)cn1O)C(=O)O)C(C)(C)C)C(C)(C)O)C(C)(C)O"
A: 103

Q: Lookup "CO[C@@H](CNC(=O)[C@H](NC(=O)[C@H](O)[C@H](C)O)[C@H](O)c1cncn1C)[C@H](O)[C@H](O)C(=O)N(C)[C@@H](Cc1ccc(F)cc1)C(=O)NCC(=O)N[C@H](C(=O)N[C@@H](CO)C(=O)N[C@H](C(=O)N[C@H](C(=O)N[C@@H](CCC(=O)NCc1cc(=O)c(O)cn1O)C(=O)NCCN)C(C)(C)C)C(C)(C)O)C(C)(C)O"
A: 41

Q: Lookup "CO[C@@H](CNC(=O)[C@H](NC(=O)[C@H](O)[C@H](C)O)[C@H](O)c1cncn1C)[C@H](O)[C@H](O)C(=O)N(C)[C@@H](Cc1ccccc1)C(=O)NCC(=O)N[C@H](C(=O)N[C@@H](CO)C(=O)N[C@H](C(=O)N[C@H](C(=O)N[C@@H](CO)C(=O)O)C(C)(C)C)C(C)(C)O)C(C)(C)O"
A: 72
